Give PBM binding z-score for every item shown.
System: LXRb homodimer (NR concentration 270 nM)
Assay info: PBM binding z-score (relative to random genomic background probes); higher = stronger binding; sequences stand for … in GC…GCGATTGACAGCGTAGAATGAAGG
Give bare numbers.

TCTTGTAGATCTAAGGTTAAGAAAGCCGAAGCCT    -0.127
CCGACTAGGGCATAAGGTTACCATAAGCCAGCCC    -0.736
CGTCAAAGTTCAAGGTAACGTCACAGAAAGCAGC    1.24

Please state, for each entry, its recorded PBM binding z-score.
1. GCGACTGGGGCAAAGCAGGTTACCGTAAGGTTGG
2. TCTTGTAGATCATCAGGAGGTTAAGAAAGATCGA
3. TCTCGTAGATCAGCAGGTTAAGAAAGCTGGCCAA
4. TCATATATGTAAAAGGTGAAAGTCGGTGTGGTAA
5. AGAACGAGGGCACTGAGTTGATAGCACGGGTGGC
6. ATCTCTAGGAAAAGATAGTTCAGTGAATGCAAAT

Output line:
1. -1.45
2. -0.422
3. -1.13
4. 0.0133
5. -0.887
6. 0.273

Please state, for each entry, its recorded PBM binding z-score.
1. GCTAGTTGGTCAGCAAAAGGTCACACACCGGTCG
2. CCAGACAGGCGAAAGGTAACTCAGTCTGGTACGC
3. ACTTACGGGTCAACGAGGTTATAGAACGCGTATA
4. GCACATAGGTAATACAAGGTGAAAGTCCGATTGT
5. ATCTCTAGGTAACAAGTTGAGTGAAAGAGAGGAC
6. GCTTTCGGGTCAAAGGTTATAGCATGAATAGAAT
7. CAAACTAGGTCAAAGGTCTAAGTCGAGCCAACCA

Output line:
[0.516, -1.33, 0.433, -0.39, 0.76, 0.746, 0.734]

Please state, for each entry, its recorded PBM binding z-score.
1. CGTAGTTGGTCAAGGTCACACACGCTATAGGTAC
2. ATCGAAAGGTCGAGGCGAGTATAGAGAAAGGGAA
3. TCGAGTAGGTTAGTCGGGGCATACAGCCAACATA
4. CCGACTGGGGCAAGGATACCATAACGCACAGCCA
5. ATATGCAGGTTAAGGGTCATTCAGGTTGGTTCGC

Output line:
[0.592, 0.308, -0.174, -1.01, 1.17]

Please state, for each entry, its recorded PBM binding z-score.
1. GCGACTGGGGCAAAGCAGGTTACGATAAGGTTGG
2. TCTAGCAGGCCAAAGGGTCACTCAAGAGGTACGG
3. CGTCCAAGTTCAAGGTCAGTGAAAGAGACTCGAA
4. ATCCCTAGGTAAAGTTCAGTGAAAGATCGATAGA
5. CCTAGTGGGCCATTCAGAGGTCATTGATCATATG

Output line:
-0.982
-0.592
0.857
0.53
0.202

* * *

System: PPARg:RXRa 90nM:30nM, anti-RXR (NR concentration 90 nM, RXRa partner concentration 30 nM)
Assay info: PBM binding z-score (relative to random genomic background probes); higher = stronger binding; sequences stand for … in GC…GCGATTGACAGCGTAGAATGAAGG
Measured metric: PBM binding z-score
Answers are plain numbers.

# annotated cases, reported PBM binding z-score shown
TAGCCTAGGTCATTGGGCCAATATAGTACGCATC    3.46
ATCTTTAGGTAACAAGTTCAGTGAAAGAGAGGAC    0.949
GGAACGAGGGCATTCGAGTTGATGGCATGGCGAT    -0.326
TCGAGTAGGTTAGCCGGGGCATTCAGCCAACATA    0.701

Please state, for each entry, its recorded PBM binding z-score.
1. CCTTACGGGTCACTGACAGGCTATAGCATTTGGA
2. CCTCGGAGGACAAAAGGTCAGAGCTGTCCGCTTT
3. GCATATAGGTGATACAAGGTGAAAGTCCGATTGT
4. ATCGAAAGGTCGAGGTCAGTATAGAGAAAGGGAA
5. TGAATGAGGTTATAAGATGAGGGAACGTTGCAAA
6. CGAACTAGTTCAGAACAGGACAGTGAAGGATGAT
7. CGTCCAATGTCAAGGTCAGTGAAAGAGACTCGAA
8. ACAGAGAGGTGATGAAGGTAACTCAGGCTATCAT

Output line:
2.83
3.22
1.33
4.08
1.43
-0.675
0.482
0.328

* * *

Give PBM binding z-score for every item shown.
Tested on: PPARg:RXRa IVT, anti-PPARg (NR concentration 270 nM, RXRa partner concentration 90 nM)
Assay info: PBM binding z-score (relative to random genomic background probes); higher = stronger binding; sequences stand for … in GC…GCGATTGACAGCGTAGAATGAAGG

AGAATGAGGTTACCAAATATCAGGGAAACGCTTG    3.78
CGTCAAAGTTCGAGGTAACGTAACAGAAAGCAGC    0.878
CGAACTAGGTCATTGAAAGGACAGTGAATAGTAA    8.24
AGAATGAGGTTATACGGAGATCAGGGAAGAAAGT    2.05
CCTACTGTGCCAAAGGTCATTGATTCCAATGCTC    5.97
CGTACGAGGGCATGAGTTGATAGCAAATGCCGAT    1.22

Please state, for each entry, its recorded PBM binding z-score.
1. TCATATAGGTAAACTGGTGAAAGTCCGTAAGTTA
2. CCAAGTTGGTCAAGGTCACACACGCTATAGGTAC

Output line:
[2.69, 3.8]

Please state, for each entry, its recorded PBM binding z-score.
1. CGTCCAAGGTCAAGGTAAGTGAAAGAGACTCGAA
2. TCTGATAGGTCAGTTGGTCAGCTAACGAGCTGCC
3. GCGACTGGGGCCTCAGCAGGTTACCATAACTTAA
4. GCTTGTAGATCAAGGTTACGAAAGACTAAGCTAA
5. TCTCGGAGGACACGAAGGTAAGAGCTTTCCAGAG
6. TCGAGCAGGTTACCAATGGGGCATTCAGCTTTCT

Output line:
1. 3.85
2. 2.26
3. -0.47
4. 1.67
5. -0.283
6. 0.239

Please state, for each entry, its recorded PBM binding z-score.
1. TAGCCTAGGTCTTTCAGGGGCCAGTATAGAAAGC
2. ATATGTAGGTTAGCTGGGGTCATTCTGACTAGGC
3. TCTTGTAGATCAATAGAGGATAAGAAAGTGCGCT

Output line:
0.431
6.37
0.366

Please state, for each entry, its recorded PBM binding z-score.
1. TCGTGTAGATCAAAGGTTAAGAAAGCCGAAGCCT
2. CCGAGTAGGTTATGGGGCATGCAGGCAACGGTGA
3. CGTCCAAGGTCAATGCTCGGTCAGTGAAAGCATT
4. TGAATGAGGTTAACGATCAGGGAACGTGGCGTCG
5. ACTTACGGGTCAACGAGGTTATAGTACGCGTATA

Output line:
[2.22, 3.37, 3.36, 2.98, 4.22]

* * *

Give PBM binding z-score for every item shown.
System: LXRb homodimer (NR concentration 270 nM)
Assay info: PBM binding z-score (relative to random genomic background probes); higher = stronger binding; sequences stand for … in GC…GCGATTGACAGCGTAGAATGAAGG
Answers are plain numbers.

# annotated cases, reported PBM binding z-score shown
GCTGCTAGGTCAGGTTGGTCAGCTAGCGGGTACG    -0.466
ATCTGTAGGTTAAGGGTCATTCAGGTTGGTTCGC    1.72
CCTAACAGGCCAATCTGGGTCACTCAAGGCTTGA    -0.0196
TCATATAGGTAAAAGGTGAAAATCGGTGTGGTAA    0.2
TAACCTAGGTCATGCGGGCCAGTATAGTGTCGGC    -0.0591

Let us examine a further case.
Input line: Using the record for `CGTAAAAGTTCAACTAAGGTAACGTAAAGCACGC` , report its PBM binding z-score.
Output line: 1.96

* * *

Give PBM binding z-score for every item shown.
Test system: FXR:RXRa (NR concentration 270 nM, RXRa partner concentration 90 nM)
Assay info: PBM binding z-score (relative to random genomic background probes); higher = stronger binding; sequences stand for … in GC…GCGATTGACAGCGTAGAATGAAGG
One number for each entry.

Please state, for each entry, its recorded PBM binding z-score.
1. GCGACCGGGGCAAAGCAGGTTACCATAAGGTTGG
2. CCTGCTGGGCCAAGGTCATTGATCAGTCAAAGCA
3. CCTTACGGGTCACAAGGTTATAGCACGACGAGCG

Output line:
1: 0.264; 2: 3.6; 3: 5.77

* * *

System: PPARg:RXRa 270nM:90nM, anti-RXR (NR concentration 270 nM, RXRa partner concentration 90 nM)
Assay info: PBM binding z-score (relative to random genomic background probes); higher = stronger binding; sequences stand for … in GC…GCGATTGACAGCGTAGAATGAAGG
Lab note: class by PBM binding z-score, see low class = under 0.4, middle class = from 0.4 up to 2, high class = 2 and over

These solved cases illustrate the format of a correct answer.
ATATCAAGGTGATCGTGAGGTCGTTGATACTAAC    middle class
TAGCCTAGGCCATTGGGCCAGTATAGTACGCATC    low class
ATCGAAAGGTCGTGAGGTGAGTCTACAGAAAGGC    high class
GCAGACAGGTGAAACGCAGGTAACTCATGGTGGC    middle class

Input line: Just checking, what class would you give `GTACCTAGGTGAATAGGTCGTTGATGAGTAGGCG` here?
Output line: high class

Input line: Just checking, what class would you give `CCTAGCAAGCCAATCTGGGTCACTCAAGGCTTGA` here?
Output line: middle class

Input line: Just checking, what class would you give `TGAATGAGGGTAAAGATCAGGGAACGTGGCGTCG` here?
Output line: high class

Input line: Just checking, what class would you give `GGAACGAGGGCATTTGAGTTGATAGCATGGCGAT` here?
Output line: middle class

Input line: Just checking, what class would you give `ACTCGGAGGCCAAAGGTCAGAGCTACGCCAGTGA` here?
Output line: high class

Input line: Just checking, what class would you give `AGAATGAGGTTAAAATCAGGGAAACAGAATACAT` here?
Output line: high class

Input line: Just checking, what class would you give `ACTATTAGTTGTGACGAGGGCAACCGATAGGTTG` here?
Output line: low class

Input line: Just checking, what class would you give `ATCTCTAGGTAAAGATAGATCAGTGAATGCAAAT` here?
Output line: low class
